Molecular target: T1, mOrai1-hOrai1 ECL2 (KPPAE) protein (human/mouse chimera, UniProt Q8BWG9 1-304 (mouse entry))
T1 construct: also called Ch
T1 sequence (Q8BWG9 other isoform, or with tags, fused parts or gaps): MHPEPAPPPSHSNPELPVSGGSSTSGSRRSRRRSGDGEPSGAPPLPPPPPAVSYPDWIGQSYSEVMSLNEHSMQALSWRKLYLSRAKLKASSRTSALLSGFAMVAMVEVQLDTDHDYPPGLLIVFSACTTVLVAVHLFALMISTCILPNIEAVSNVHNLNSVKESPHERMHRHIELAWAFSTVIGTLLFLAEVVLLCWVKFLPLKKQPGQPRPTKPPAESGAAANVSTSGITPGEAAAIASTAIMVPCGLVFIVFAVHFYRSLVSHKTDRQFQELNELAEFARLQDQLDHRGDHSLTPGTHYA
Assay: flow cytometry on HEK-293 cells transfected with the chimera (loss of binding experiment)
RECORDED_ENDPOINT: binding result

mAb 2B4.1 (antibody, human IgG2, lambda, V domains shown) VH: QVQLVQSGAEVKKPGASVKVSCKASGYTFTDYYMHWVRQAPGQGLEWMGWINPNSGGTNYVQKFQDRVTMTRDTSITTAYMELTRLRSDDTAVYYCAREEGDYGMDVWGQGTTVTVSS VL: QSVLTQPPSVSGAPGQRVTISCTGSNSNIGTGYDVHWYQKLPGTAPRLLIYSHFNRPSGVPDRFSGSTSGTSASLAITGLQAEDEADYYCQSYDSSLSGSVFGGGTKLTVLG; no binding
mAb 5F2.1 (antibody, human IgG2, lambda, V domains shown, fully human IgG2 lambda, Campaign 2) VH: QVQLVQSGAEVKKPGASVKVSCKASGYTFTDYYMNWVRQAPGQGLEWMGWINPNSGGTHYAQKFQGRVTMTRDTSISTAYMELSRLRSDDTAVYYCAREYGGYSDWFDPWGQGTLVTVSS VL: QSVLTQPPSVSGAPGQRVTISCTGSRSNIGAGYDVHWYQQLPRTAPKLLIYDNSNRPSGVPDRFSGSKSGSSASLAITGLQAEDEADYYCQSYDNSLSDSVLIGGGTKLTVLG; no binding
mAb 5B1.1 (antibody, human IgG2, lambda, V domains shown, fully human IgG2 lambda, Campaign 2; also called mAb 5Bl1.1) VH: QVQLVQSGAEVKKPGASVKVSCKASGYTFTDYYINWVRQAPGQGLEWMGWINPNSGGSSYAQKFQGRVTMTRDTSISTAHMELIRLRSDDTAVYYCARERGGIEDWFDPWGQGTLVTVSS VL: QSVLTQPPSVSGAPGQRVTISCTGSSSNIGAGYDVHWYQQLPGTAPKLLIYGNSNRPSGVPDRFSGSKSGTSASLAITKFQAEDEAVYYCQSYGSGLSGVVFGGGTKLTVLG; no binding
mAb 2D2.1 (antibody, human IgG2, lambda, V domains shown, fully human IgG2 lambda, Campaign 1; also called mAb 2D.1) VH: QVQLQQWGAGLLKPSETLSLTCAVYGGSFSGYYWSWIRQPPGKGLEWIGEIDHSGRINYNPALKSRLTISVDTSKNQFSLKLSSVTAADTAVYYCARAGSGGYEDWFDPWGQGTLVTVSS VL: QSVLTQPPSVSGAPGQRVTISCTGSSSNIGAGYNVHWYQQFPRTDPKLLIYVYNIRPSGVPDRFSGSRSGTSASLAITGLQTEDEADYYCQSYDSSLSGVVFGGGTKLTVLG; no binding
